System: SN12C renal
Assay Summary: NCI tumour cell line growth inhibition, 48 h
Endpoint Name: TGI

>>> measurement("COc1ccc(/C=C/C(C(=O)O)C(=O)O)cc1")
"> 100 µM"

// for each compound in input: emit TGI
1. Cc1ccc(Nc2nc(NS(=O)(=O)c3cc(C)c(Cl)cc3S)n[nH]2)cc1
2. COc1cc(C(CC(OC)OC)=C(C#N)C#N)cc(OC)c1OC
3. COc1cc(C2c3cc4c(cc3OC(N3CCOCC3)C2C)OCO4)cc(OC)c1OC(C)=O (configuration not stated)
4. O=c1c(S(=O)(=O)Oc2ccccc2)coc2cc(F)ccc12
5. Cc1ccc(-n2c(-c3ccc(Cl)cc3)cs/c2=N\NC(=O)COc2n[nH]c(=O)c3ccccc23)cc1
6. Cc1[nH]nc(C(=O)Nc2n[nH]c3ccccc23)c1[N+](=O)[O-]
7. c1ccc2c(c1)ccc1c3ccccc3ccc21

1. > 100 µM
2. > 100 µM
3. > 84.2 µM
4. > 100 µM
5. > 100 µM
6. > 100 µM
7. > 50 µM

Attribution: PubChem BioAssay (NCI)
